Experiment: Clearance in dog at 0.25 mg/kg, iv
Format: ADME, organism-based, Canis lupus familiaris
Design: dose 0.25 mg/kg, route intravenous
Details: in vivo
assay_readout: clearance (mL/min/kg)
Your answer is read as mL/min/kg, so omit the unit and give the number.

## Task Given the molecule `CC(=O)C1=NN2c3cc(F)ccc3OC[C@H]2[C@@]1(CCCN1CCNCC1)c1ccccc1` , what is its reported clearance?
## Result 40

## Task Given the molecule `CC(=O)C1=NN2c3cc(C)ccc3OC[C@H]2[C@@]1(CCCN(C)C)c1ccccc1` , what is its reported clearance?
## Result 37

## Task Given the molecule `CC(=O)C1=NN2c3cc(F)ccc3OC[C@H]2[C@@]1(CCCN1CCNC(=O)CC1)c1ccccc1` , what is its reported clearance?
## Result 15

## Task Given the molecule `CC(=O)C1=NN2c3cc(F)ccc3OC[C@H]2[C@@]1(CCCN1CCC(=O)N(C)CC1)c1ccccc1` , what is its reported clearance?
## Result 11

## Task Given the molecule `CC(=O)C1=NN2c3cc(F)ccc3OC[C@H]2[C@@]1(CCCN(C)C)c1ccccc1` , what is its reported clearance?
## Result 52

## Task Given the molecule `CC(=O)C1=NN2c3cc(F)ccc3OC[C@H]2[C@@]1(CCCN1CCN(C(C)=O)CC1)c1ccccc1` , what is its reported clearance?
## Result 14
